Source listed as paper PMC11910589.

# experimental-system: T1, dP75 PWWP (Drosophila melanogaster, UniProt Q9VAA9 9-90)
# T1 sequence: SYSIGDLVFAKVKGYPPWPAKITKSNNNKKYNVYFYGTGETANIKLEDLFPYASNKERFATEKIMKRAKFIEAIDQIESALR
# experiment-description: fluorescence polarization
property-label: Kd (µM)
Numeric answer only, unit µM assumed.

CCCCCCCCCCCC (ssDNA) [FAM-12C (polyC)] : 151

Entry under review: TTTTTTTTTTTT (ssDNA) [FAM-12T (polyT)] . Reported Kd? 24.2
